Value source: paper PMC10278368

Type: in vivo, human
assay_conditions: human, in vivo, iv
Bridge positions count the residues as written; N and C are the ends. Square brackets hold non-standard residues; d marks the D form. Peptide text beside a SMILES is read from it. * marks the point of attachment. X1 = CC[C@H](C)CCCCC(=O)*; Dab = NCC[C@H](N)C(=O)O
readout_kind: half-life (h)
Give the number; h is assumed, so skip it.

// half-life lookup, compound = CC[C@H](C)CCCCC(=O)N[C@@H](CCN)C(=O)N[C@H](C(=O)N[C@@H](CCN)C(=O)N[C@H]1CCNC(=O)[C@H]([C@@H](C)O)NC(=O)[C@H](CCN)NC(=O)[C@H](CCN)NC(=O)[C@H](CC(C)C)NC(=O)[C@@H](Cc2ccccc2)NC(=O)[C@H](CCN)NC1=O)[C@@H](C)O [Polymyxin B1] (X1-[Dab]T[Dab][Dab][Dab][dF]L[Dab][Dab]T; lactam 4-C) , result: 3.07

* * *

Format: in vivo, human
assay_conditions: human, in vivo, iv
Bridge positions count the residues as written; N and C are the ends. Square brackets hold non-standard residues; d marks the D form. Peptide text beside a SMILES is read from it. * marks the point of attachment. X1 = CC[C@H](C)CCCCC(=O)*; Dab = NCC[C@H](N)C(=O)O
readout_kind: clearance (mL/min)
Give the number; mL/min is assumed, so skip it.

compound	units_text	clearance
CC[C@H](C)CCCCC(=O)N[C@@H](CCN)C(=O)N[C@H](C(=O)N[C@@H](CCN)C(=O)N[C@H]1CCNC(=O)[C@H]([C@@H](C)O)NC(=O)[C@H](CCN)NC(=O)[C@H](CCN)NC(=O)[C@H](CC(C)C)NC(=O)[C@@H](Cc2ccccc2)NC(=O)[C@H](CCN)NC1=O)[C@@H](C)O [Polymyxin B1] (X1-[Dab]T[Dab][Dab][Dab][dF]L[Dab][Dab]T; lactam 4-C)	mL/min	5.07

// clearance lookup, compound = CC[C@H](C)CCCCC(=O)N[C@@H](CCN)C(=O)N[C@H](C(=O)N[C@@H](CCN)C(=O)N[C@H]1CCNC(=O)[C@H]([C@@H](C)O)NC(=O)[C@H](CCN)NC(=O)[C@H](CCN)NC(=O)[C@H]([C@@H](C)CC)NC(=O)[C@@H](Cc2ccccc2)NC(=O)[C@H](CCN)NC1=O)[C@@H](C)O [Isoleucine Polymyxin B1] (X1-[Dab]T[Dab][Dab][Dab][dF]I[Dab][Dab]T; lactam 4-C) , result: 4.02
